Molecular target: human recombinant PDE4 (Homo sapiens, UniProt Q07343)
Construct: made in house; host or cells: Saccharomyces cerevisiae BJ2-54
Sequence (Q07343 whole entry): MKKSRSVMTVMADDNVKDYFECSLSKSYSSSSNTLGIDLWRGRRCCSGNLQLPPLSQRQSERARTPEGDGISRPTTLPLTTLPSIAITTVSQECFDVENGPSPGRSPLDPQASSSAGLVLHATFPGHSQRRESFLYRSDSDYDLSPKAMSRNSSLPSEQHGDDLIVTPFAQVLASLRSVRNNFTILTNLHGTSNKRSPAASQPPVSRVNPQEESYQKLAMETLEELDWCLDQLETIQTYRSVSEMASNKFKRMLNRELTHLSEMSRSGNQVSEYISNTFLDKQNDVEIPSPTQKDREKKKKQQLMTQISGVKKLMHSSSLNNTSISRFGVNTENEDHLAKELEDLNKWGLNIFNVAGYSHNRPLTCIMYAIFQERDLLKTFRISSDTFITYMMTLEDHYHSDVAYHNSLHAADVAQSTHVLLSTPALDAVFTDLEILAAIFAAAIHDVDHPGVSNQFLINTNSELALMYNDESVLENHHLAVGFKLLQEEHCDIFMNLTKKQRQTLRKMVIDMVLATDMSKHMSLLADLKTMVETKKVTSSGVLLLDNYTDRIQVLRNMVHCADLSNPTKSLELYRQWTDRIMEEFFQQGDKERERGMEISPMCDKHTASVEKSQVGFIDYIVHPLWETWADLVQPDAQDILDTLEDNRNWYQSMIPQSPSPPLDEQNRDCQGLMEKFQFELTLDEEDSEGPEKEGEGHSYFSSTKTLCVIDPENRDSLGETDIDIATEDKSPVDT
Test: Inhibition of human recombinant PDE4 (charcoal separation PDE assay)
Format: biochemical
Details: structure table, read-out: PDE4 IC50
Each record here notes measured log10 of IC50.
Log10 applied to IC50; unit prior to transform: µM.

CCOC(=O)c1cn(-c2ccccn2)nc1C    0.56
COC(=O)c1cnn(-c2ccccn2)c1C(C)=O    2.26
CCOC(=O)c1c(C)nn(-c2ccc([N+](=O)[O-])cn2)c1C    1.76
CCOC(=O)c1cnn(-c2ncc(C(F)(F)F)cc2Cl)c1C    1.80
CCOC(=O)c1c(C)nn(C2CCCCC2)c1C    -1.28
Cc1nn(-c2ncccc2[N+](=O)[O-])c(C)c1C(=O)O    1.68
CCOC(=O)c1c(C)nn(-c2ncccc2[N+](=O)[O-])c1C    -0.70
CCOC(=O)c1c(C)nn(-c2ccc(C)cc2)c1C    0.60
C/C(=N\O)c1cnn(-c2cc(C(F)(F)F)cc(C)n2)c1C    1.83

Would you kindly look at the next entry?
query: State, for human recombinant PDE4 (Homo sapiens, UniProt Q07343), measured log10 of IC50 of the compound listed here: Cc1nn(-c2ccccc2)c(C)c1C(=O)Nc1ccncc1
result: 1.99

Origin of values: patent US7087634B2
